Activity for assorted compounds
species on record: Oryctolagus cuniculus; experiment: Total cholesterol present in New Zealand white rabbits fed with control diet (100 g/day) for seven days; assay type: functional
measured-endpoint: Activity (mg/dL)

{"chemical-string": "CC(C)(C)c1cc(SC[Si](C)(C)c2ccccc2)cc(C(C)(C)C)c1O", "measured-endpoint": "Activity", "reported-result": 119}
{"chemical-string": "CC(C)(C)c1cc(OC[Si](C)(C)c2ccccc2)cc(C(C)(C)C)c1O", "measured-endpoint": "Activity", "reported-result": 165}
{"chemical-string": "CC(C)(C)c1cc(OC[Si](C)(C)c2ccc(Cl)cc2)cc(C(C)(C)C)c1O", "measured-endpoint": "Activity", "reported-result": 247}
{"chemical-string": "COc1ccccc1[Si](C)(C)COc1cc(C(C)(C)C)c(O)c(C(C)(C)C)c1", "measured-endpoint": "Activity", "reported-result": 235}
{"chemical-string": "COc1ccc([Si](C)(C)COc2cc(C(C)(C)C)c(O)c(C(C)(C)C)c2)cc1", "measured-endpoint": "Activity", "reported-result": 153}

###

test system: Oryctolagus cuniculus; assay: Low density lipoprotein (LDL) percent control of cholesterol after administration in rabbits.; type: functional; set-up: concentration or dose not given beside the values
Please respond with True when measured Control is strictly beneath 70%, and with False in all other cases.

{"chemical-string": "CC(C)(C)c1cc(OC[Si](C)(C)c2ccc(Cl)cc2)cc(C(C)(C)C)c1O", "cat": "False"}
{"chemical-string": "CC(C)(C)c1cc(SC[Si](C)(C)c2ccccc2)cc(C(C)(C)C)c1O", "cat": "True"}
{"chemical-string": "COc1ccc([Si](C)(C)COc2cc(C(C)(C)C)c(O)c(C(C)(C)C)c2)cc1", "cat": "True"}
{"chemical-string": "COc1ccccc1[Si](C)(C)COc1cc(C(C)(C)C)c(O)c(C(C)(C)C)c1", "cat": "True"}

###

system: Oryctolagus cuniculus; experiment: Total percent control of cholesterol after administration in rabbits.; type: functional; design: concentration or dose not given beside the values
measured-endpoint: Control (%)

{"chemical-string": "CC(C)(C)c1cc(SC[Si](C)(C)c2ccccc2)cc(C(C)(C)C)c1O", "assayed-system": "Oryctolagus cuniculus", "reported-result": 52}
{"chemical-string": "CC(C)(C)c1cc(OC[Si](C)(C)c2ccccc2)cc(C(C)(C)C)c1O", "assayed-system": "Oryctolagus cuniculus", "reported-result": 72}
{"chemical-string": "COc1ccccc1[Si](C)(C)COc1cc(C(C)(C)C)c(O)c(C(C)(C)C)c1", "assayed-system": "Oryctolagus cuniculus", "reported-result": 77}
{"chemical-string": "CC(C)(C)c1cc(OC[Si](C)(C)c2ccc(Cl)cc2)cc(C(C)(C)C)c1O", "assayed-system": "Oryctolagus cuniculus", "reported-result": 87}
{"chemical-string": "COc1ccc([Si](C)(C)COc2cc(C(C)(C)C)c(O)c(C(C)(C)C)c2)cc1", "assayed-system": "Oryctolagus cuniculus", "reported-result": 54}
